From: the NIST ThermoML archive (doi:10.1021/acs.jced.9b00442)

TEST_PARAMETERS: 336.15 K; 100 kPa; Liquid; Vibrating tube method
Some compounds, each annotated with its measured mass density.
Value expressed in kg/m3; do not type the unit.

Example entries and their recorded answers appear below.
CCCC[N+](CCO)(CCO)CCO.O=S(=O)([N-]S(=O)(=O)C(F)(F)F)C(F)(F)F | 1423.8
CC[N+](C)(C)CCCO.O=S(=O)([N-]S(=O)(=O)C(F)(F)F)C(F)(F)F | 1430.4
CCCC[N+](C)(C)CC.O=S(=O)([N-]S(=O)(=O)C(F)(F)F)C(F)(F)F | 1338.6
CC[N+](C)(CCO)CCO.O=S(=O)([N-]S(=O)(=O)C(F)(F)F)C(F)(F)F | 1481.5
CC[N+](C)(C)CCOC.O=S(=O)([N-]S(=O)(=O)C(F)(F)F)C(F)(F)F | 1395.8

IN: Can you look up the measured mass density of CC[N+](CCO)(CCO)CCO.O=S(=O)([N-]S(=O)(=O)C(F)(F)F)C(F)(F)F for me?
OUT: 1496.6

IN: Can you look up the measured mass density of C[N+](CCO)(CCO)CCO.O=S(=O)([N-]S(=O)(=O)C(F)(F)F)C(F)(F)F for me?
OUT: 1532.8

###

Some compounds, each annotated with its measured mass density.
TEST_PARAMETERS: 312.15 K; 100 kPa; Liquid; Vibrating tube method
± gives the expanded uncertainty stated by the source.

Example entries and their recorded answers appear below.
CCCC[N+](CCO)(CCO)CCO.O=S(=O)([N-]S(=O)(=O)C(F)(F)F)C(F)(F)F | 1444.5 ± 1.1 kg/m3
CC[N+](C)(CCO)CCO.O=S(=O)([N-]S(=O)(=O)C(F)(F)F)C(F)(F)F | 1502.6 ± 1.2 kg/m3
CC[N+](C)(C)CCOC.O=S(=O)([N-]S(=O)(=O)C(F)(F)F)C(F)(F)F | 1417.8 ± 1.1 kg/m3

IN: Can you look up the measured mass density of C[N+](CCO)(CCO)CCO.O=S(=O)([N-]S(=O)(=O)C(F)(F)F)C(F)(F)F for me?
OUT: 1554.2 ± 1.2 kg/m3

IN: Can you look up the measured mass density of CC[N+](C)(C)CCCO.O=S(=O)([N-]S(=O)(=O)C(F)(F)F)C(F)(F)F for me?
OUT: 1451.2 ± 1.2 kg/m3

IN: Can you look up the measured mass density of CC[N+](CCO)(CCO)CCO.O=S(=O)([N-]S(=O)(=O)C(F)(F)F)C(F)(F)F for me?
OUT: 1517.5 ± 1.2 kg/m3

IN: Can you look up the measured mass density of CCCC[N+](C)(C)CC.O=S(=O)([N-]S(=O)(=O)C(F)(F)F)C(F)(F)F for me?
OUT: 1359.3 ± 1.1 kg/m3

###

TEST_PARAMETERS: 340.15 K; 100 kPa; Liquid; Vibrating tube method
Some molecules, each annotated with its measured mass density.
Value expressed in kg/m3; do not type the unit.

Example entries and their recorded answers appear below.
CC[N+](CCO)(CCO)CCO.O=S(=O)([N-]S(=O)(=O)C(F)(F)F)C(F)(F)F | 1493.2
CCCC[N+](C)(C)CC.O=S(=O)([N-]S(=O)(=O)C(F)(F)F)C(F)(F)F | 1335.2
CCCC[N+](CCO)(CCO)CCO.O=S(=O)([N-]S(=O)(=O)C(F)(F)F)C(F)(F)F | 1420.4
C[N+](CCO)(CCO)CCO.O=S(=O)([N-]S(=O)(=O)C(F)(F)F)C(F)(F)F | 1529.2

IN: Can you look up the measured mass density of CC[N+](C)(C)CCCO.O=S(=O)([N-]S(=O)(=O)C(F)(F)F)C(F)(F)F for me?
OUT: 1427

IN: Can you look up the measured mass density of CC[N+](C)(CCO)CCO.O=S(=O)([N-]S(=O)(=O)C(F)(F)F)C(F)(F)F for me?
OUT: 1478

IN: Can you look up the measured mass density of CC[N+](C)(C)CCOC.O=S(=O)([N-]S(=O)(=O)C(F)(F)F)C(F)(F)F for me?
OUT: 1392.2

###

TEST_PARAMETERS: 298.15 K; 100 kPa; Liquid; Vibrating tube method
MEASURED_ATTRIBUTE: mass density (kg/m3)
Value expressed in kg/m3; do not type the unit.

CC[N+](C)(CCO)CCO.O=S(=O)([N-]S(=O)(=O)C(F)(F)F)C(F)(F)F | 1515.3
CC[N+](C)(C)CCOC.O=S(=O)([N-]S(=O)(=O)C(F)(F)F)C(F)(F)F | 1431
CC[N+](CCO)(CCO)CCO.O=S(=O)([N-]S(=O)(=O)C(F)(F)F)C(F)(F)F | 1529.7
CCCC[N+](C)(C)CC.O=S(=O)([N-]S(=O)(=O)C(F)(F)F)C(F)(F)F | 1371.6
CCCC[N+](CCO)(CCO)CCO.O=S(=O)([N-]S(=O)(=O)C(F)(F)F)C(F)(F)F | 1456.6
C[N+](CCO)(CCO)CCO.O=S(=O)([N-]S(=O)(=O)C(F)(F)F)C(F)(F)F | 1566.8

IN: Can you look up the measured mass density of CC[N+](C)(C)CCCO.O=S(=O)([N-]S(=O)(=O)C(F)(F)F)C(F)(F)F for me?
OUT: 1463.4

###

Some compounds, each annotated with its measured electrical conductivity.
TEST_PARAMETERS: 288.15 K; 100 kPa; Liquid; Frequency=0.0006 MHz; Alternating current cell with electrodes
Value expressed in S/m; do not type the unit.

Example entries and their recorded answers appear below.
CC[N+](CCO)(CCO)CCO.O=S(=O)([N-]S(=O)(=O)C(F)(F)F)C(F)(F)F | 0.011
CCCC[N+](CCO)(CCO)CCO.O=S(=O)([N-]S(=O)(=O)C(F)(F)F)C(F)(F)F | 0.007
CC[N+](C)(CCO)CCO.O=S(=O)([N-]S(=O)(=O)C(F)(F)F)C(F)(F)F | 0.04
CCCC[N+](C)(C)CC.O=S(=O)([N-]S(=O)(=O)C(F)(F)F)C(F)(F)F | 0.11
C[N+](CCO)(CCO)CCO.O=S(=O)([N-]S(=O)(=O)C(F)(F)F)C(F)(F)F | 0.017

IN: Can you look up the measured electrical conductivity of CC[N+](C)(C)CCCO.O=S(=O)([N-]S(=O)(=O)C(F)(F)F)C(F)(F)F for me?
OUT: 0.069

IN: Can you look up the measured electrical conductivity of CC[N+](C)(C)CCOC.O=S(=O)([N-]S(=O)(=O)C(F)(F)F)C(F)(F)F for me?
OUT: 0.182

###

Some molecules, each annotated with its measured viscosity.
TEST_PARAMETERS: 333.15 K; 100 kPa; Liquid; Concentric cylinders viscometry
Value expressed in mPa·s; do not type the unit.

Example entries and their recorded answers appear below.
C[N+](CCO)(CCO)CCO.O=S(=O)([N-]S(=O)(=O)C(F)(F)F)C(F)(F)F | 76.5
CC[N+](C)(CCO)CCO.O=S(=O)([N-]S(=O)(=O)C(F)(F)F)C(F)(F)F | 47.3
CCCC[N+](CCO)(CCO)CCO.O=S(=O)([N-]S(=O)(=O)C(F)(F)F)C(F)(F)F | 106.6
CC[N+](C)(C)CCCO.O=S(=O)([N-]S(=O)(=O)C(F)(F)F)C(F)(F)F | 34.5
CC[N+](C)(C)CCOC.O=S(=O)([N-]S(=O)(=O)C(F)(F)F)C(F)(F)F | 18
CCCC[N+](C)(C)CC.O=S(=O)([N-]S(=O)(=O)C(F)(F)F)C(F)(F)F | 24.8

// next item, viscosity requested
IN: Can you look up the measured viscosity of CC[N+](CCO)(CCO)CCO.O=S(=O)([N-]S(=O)(=O)C(F)(F)F)C(F)(F)F for me?
OUT: 94.7

###

TEST_PARAMETERS: 361.15 K; 100 kPa; Liquid; Vibrating tube method
MEASURED_ATTRIBUTE: mass density (kg/m3)
Value expressed in kg/m3; do not type the unit.

CC[N+](CCO)(CCO)CCO.O=S(=O)([N-]S(=O)(=O)C(F)(F)F)C(F)(F)F | 1475.4
CCCC[N+](CCO)(CCO)CCO.O=S(=O)([N-]S(=O)(=O)C(F)(F)F)C(F)(F)F | 1402.8
C[N+](CCO)(CCO)CCO.O=S(=O)([N-]S(=O)(=O)C(F)(F)F)C(F)(F)F | 1511.1
CC[N+](C)(CCO)CCO.O=S(=O)([N-]S(=O)(=O)C(F)(F)F)C(F)(F)F | 1460.1
CCCC[N+](C)(C)CC.O=S(=O)([N-]S(=O)(=O)C(F)(F)F)C(F)(F)F | 1317.4

IN: Can you look up the measured mass density of CC[N+](C)(C)CCOC.O=S(=O)([N-]S(=O)(=O)C(F)(F)F)C(F)(F)F for me?
OUT: 1373.3

IN: Can you look up the measured mass density of CC[N+](C)(C)CCCO.O=S(=O)([N-]S(=O)(=O)C(F)(F)F)C(F)(F)F for me?
OUT: 1409.1
